condition description: acidic group
measured property: pKa

* Sc1cccc2ccc[nH+]c12 | 2.05
* O=C([O-])c1ccc([N+](=O)[O-])cc1O | 10.3
* CCOc1ccc(C(=O)NC(=S)N(CC)CC)cc1 | 8.83

----------
condition description: acidic group
Would you mind labelling by pKa? At or over 6 is 1 (yes), under is 0 (no).

• c1ncc2[nH]cnc2n1 = 1 (yes)
• S=C(Nc1ccccc1)c1cccc(Br)c1 = 1 (yes)
• C[n+]1cccc2ccc(O)cc21 = 0 (no)
• CCc1cc(O)cc(C)c1Cl = 1 (yes)
• CC(O)(C(=O)O)c1ccccc1 (stereo not drawn) = 0 (no)
• Cc1c(Cc2c(C)n(C)[n+](-c3ccccc3)c2O)c(=O)n(-c2ccccc2)n1C = 0 (no)
• CCC(P)C(=O)O (stereo not drawn) = 0 (no)
• CC(=O)CC(=O)c1ccc[se]1 = 1 (yes)
